target: CXCL12 (human, UniProt P48061 22-93); test: BLI
I'd appreciate it if you could supply Kd values for the items below.
The response must be a number in nM with no trailing unit.

INPUT: Request the reported Kd associated with P1124_IXORI (natural protein) DSKGTSDSQDSTKSIKVDFCETNCTKTDGGWTGCTGDCICVSVGDSIEGRCMDFG
OUTPUT: 212

INPUT: Looking for the measured Kd of P1104 (natural protein, also: glycosylated) ESKEASASQGPGKSFKVEFCETNCTENNGVWSGCTGDCICVSVGDSKEGRCMDLGDKVIDTPVAQG , can you help?
OUTPUT: 67.8

Where do these numbers come from? They come from paper PMC6643034.
